Molecular target: T1, Chryseobacterium sp-62563 deamidase polypeptide (second polypeptide, deamidase domain), wildtype (Chryseobacterium sp-62563)
T1 sequence: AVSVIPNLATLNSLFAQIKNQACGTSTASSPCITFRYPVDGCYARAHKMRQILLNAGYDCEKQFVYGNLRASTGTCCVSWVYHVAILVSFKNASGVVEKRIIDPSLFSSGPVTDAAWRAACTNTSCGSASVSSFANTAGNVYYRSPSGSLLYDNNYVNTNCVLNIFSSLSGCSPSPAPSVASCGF
Test: cell-based or functional assay
quantity_name: Relative activity of maturated deamidase (% initial rate)

Here's what some known entries look like.
Chryseobacterium sp-62563 propeptide T100E (protein) NQDPNLVAKESNETAMKDFGKTVPVGIEKEDGKFKISFMVTAQPYEIKDSKENAAYISMIKTAVENETPIHVFLKANTNEIAKVDKATDDDIRYFKSVFEKEVKEENRK; 75
Chryseobacterium sp-62563 propeptide S97R (protein) NQDPNLVAKESNETAMKDFGKTVPVGIEKEDGKFKISFMVTAQPYEIKDSKENAAYISMIKTAVENETPIHVFLKANTNEIAKVDKATDDDIRYFKRVFTKEVKEENRK; 30
Chryseobacterium sp-62563 propeptide F73D (protein) NQDPNLVAKESNETAMKDFGKTVPVGIEKEDGKFKISFMVTAQPYEIKDSKENAAYISMIKTAVENETPIHVDLKANTNEIAKVDKATDDDIRYFKSVFTKEVKEENRK; 31
Chryseobacterium sp-62563 propeptide E67D (protein) NQDPNLVAKESNETAMKDFGKTVPVGIEKEDGKFKISFMVTAQPYEIKDSKENAAYISMIKTAVENDTPIHVFLKANTNEIAKVDKATDDDIRYFKSVFTKEVKEENRK; 69
Chryseobacterium sp-62563 propeptide F95M (protein) NQDPNLVAKESNETAMKDFGKTVPVGIEKEDGKFKISFMVTAQPYEIKDSKENAAYISMIKTAVENETPIHVFLKANTNEIAKVDKATDDDIRYMKSVFTKEVKEENRK; 51

A = Chryseobacterium sp-62563 propeptide V23Y (protein) NQDPNLVAKESNETAMKDFGKTYPVGIEKEDGKFKISFMVTAQPYEIKDSKENAAYISMIKTAVENETPIHVFLKANTNEIAKVDKATDDDIRYFKSVFTKEVKEENRK
B = Chryseobacterium sp-62563 propeptide M39E (protein) NQDPNLVAKESNETAMKDFGKTVPVGIEKEDGKFKISFEVTAQPYEIKDSKENAAYISMIKTAVENETPIHVFLKANTNEIAKVDKATDDDIRYFKSVFTKEVKEENRK
Task: Smaller Relative activity of maturated deamidase (% initial rate) value? Options are A and B Answer by quoting the chosen item's label.
Result: A
